Biological target: plasma purified human complement protein C3 (human) (UniProt P01024)
Sequence (P01024 23-667, chain 1 of 2): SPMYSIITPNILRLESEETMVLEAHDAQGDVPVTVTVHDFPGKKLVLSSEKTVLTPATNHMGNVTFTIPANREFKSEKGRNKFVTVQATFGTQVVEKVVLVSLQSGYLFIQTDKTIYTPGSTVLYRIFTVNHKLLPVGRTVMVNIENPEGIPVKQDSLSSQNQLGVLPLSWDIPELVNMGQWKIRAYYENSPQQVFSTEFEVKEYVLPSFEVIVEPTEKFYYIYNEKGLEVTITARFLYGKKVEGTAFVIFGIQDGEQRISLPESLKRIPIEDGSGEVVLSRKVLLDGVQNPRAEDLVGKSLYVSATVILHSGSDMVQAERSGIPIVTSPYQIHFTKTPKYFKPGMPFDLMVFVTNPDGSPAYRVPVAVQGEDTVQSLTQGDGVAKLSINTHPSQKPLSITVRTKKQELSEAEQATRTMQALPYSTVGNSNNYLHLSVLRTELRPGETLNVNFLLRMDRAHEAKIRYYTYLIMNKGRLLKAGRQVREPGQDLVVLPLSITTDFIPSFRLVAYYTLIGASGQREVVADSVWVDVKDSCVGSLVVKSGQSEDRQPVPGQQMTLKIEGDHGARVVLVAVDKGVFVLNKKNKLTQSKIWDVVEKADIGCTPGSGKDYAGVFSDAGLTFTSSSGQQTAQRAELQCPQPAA
Sequence (P01024 672-1663, chain 2 of 2): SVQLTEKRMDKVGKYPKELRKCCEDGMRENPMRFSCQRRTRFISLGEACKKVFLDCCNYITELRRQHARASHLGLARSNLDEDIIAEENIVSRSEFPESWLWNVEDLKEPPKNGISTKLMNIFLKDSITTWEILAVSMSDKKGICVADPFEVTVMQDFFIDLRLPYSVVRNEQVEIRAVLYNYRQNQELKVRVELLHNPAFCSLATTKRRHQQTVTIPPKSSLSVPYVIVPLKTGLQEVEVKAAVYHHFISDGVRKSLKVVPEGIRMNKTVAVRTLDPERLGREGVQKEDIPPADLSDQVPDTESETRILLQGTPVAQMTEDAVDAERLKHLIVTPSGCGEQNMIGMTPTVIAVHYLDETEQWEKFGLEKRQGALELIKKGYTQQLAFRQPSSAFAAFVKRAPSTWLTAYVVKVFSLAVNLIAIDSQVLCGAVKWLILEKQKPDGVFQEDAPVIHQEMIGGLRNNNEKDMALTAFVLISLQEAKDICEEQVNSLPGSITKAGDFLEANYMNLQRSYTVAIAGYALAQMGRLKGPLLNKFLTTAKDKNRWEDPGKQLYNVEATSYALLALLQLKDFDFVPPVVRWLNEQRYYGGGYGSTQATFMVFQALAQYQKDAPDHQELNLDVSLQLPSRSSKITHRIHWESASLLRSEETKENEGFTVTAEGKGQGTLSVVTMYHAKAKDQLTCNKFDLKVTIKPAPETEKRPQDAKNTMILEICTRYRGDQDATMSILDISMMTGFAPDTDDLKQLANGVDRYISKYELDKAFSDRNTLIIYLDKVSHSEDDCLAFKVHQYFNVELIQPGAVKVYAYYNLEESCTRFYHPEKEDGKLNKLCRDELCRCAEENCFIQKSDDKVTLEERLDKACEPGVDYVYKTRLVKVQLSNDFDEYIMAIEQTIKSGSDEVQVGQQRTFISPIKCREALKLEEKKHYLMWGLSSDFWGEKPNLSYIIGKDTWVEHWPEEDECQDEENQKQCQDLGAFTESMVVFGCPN
Experiment: cell-based or functional assay
This listing pairs binders with measured EC50 of hC3 cleavage.
Write it as a number; the unit nM goes unstated.

// worked examples, EC50 of hC3 cleavage included
BINDER	NUMERIC_READOUT
MTSP-1 Q38H/I41A/D60bV/F60eH/ins97aE/F97T/T98G/F99L/C122S/Q175L/Q192D (enzyme) VVGGTDADEGEWPWQVSLHALGHGHACGASLISPNWLVSAAHCYIDVRGHRYSDPTQWTAFLGLHDQSQRSAPGVQERRLKRIISHPFFNDTEGLDYDIALLELEKPAEYSSMVRPISLPDASHVFPAGKAIWVTGWGHTQYGGTGALILQKGEIRVINQTTCENLLPQLITPRMMCVGFLSGGVDSCDGDSGGPLSSVEADGRIFQAGVVSWGDGCAQRNKPGVYTRLPLFRDWIKENTGV	5.31
MTSP-1 Q38H/I41S/D60bT/F60eS/Y60gW/F97D/ins97aV/T98P/F99L/C122S/G151H/Q175L/Q192E (enzyme) VVGGTDADEGEWPWQVSLHALGHGHSCGASLISPNWLVSAAHCYIDTRGSRWSDPTQWTAFLGLHDQSQRSAPGVQERRLKRIISHPFFNDDVPLDYDIALLELEKPAEYSSMVRPISLPDASHVFPAGKAIWVTGWGHTQYGGTHALILQKGEIRVINQTTCENLLPQLITPRMMCVGFLSGGVDSCEGDSGGPLSSVEADGRIFQAGVVSWGDGCAQRNKPGVYTRLPLFRDWIKENTGV	6.68
MTSP-1 Q38E/H40R/I41H/D60bE/F97D/F99L/C122S/Q192G (enzyme) VVGGTDADEGEWPWQVSLHALGEGRHCGASLISPNWLVSAAHCYIDERGFRYSDPTQWTAFLGLHDQSQRSAPGVQERRLKRIISHPFFNDDTLDYDIALLELEKPAEYSSMVRPISLPDASHVFPAGKAIWVTGWGHTQYGGTGALILQKGEIRVINQTTCENLLPQQITPRMMCVGFLSGGVDSCGGDSGGPLSSVEADGRIFQAGVVSWGDGCAQRNKPGVYTRLPLFRDWIKENTGV	28.1
MTSP-1 Q38F/I41S/D60bF/F60eR/Y60gF/F97T/ins97aE/T98G/F99L/C122S/G151N/Q175L/Q192V (enzyme) VVGGTDADEGEWPWQVSLHALGFGHSCGASLISPNWLVSAAHCYIDFRGRRFSDPTQWTAFLGLHDQSQRSAPGVQERRLKRIISHPFFNDTEGLDYDIALLELEKPAEYSSMVRPISLPDASHVFPAGKAIWVTGWGHTQYGGTNALILQKGEIRVINQTTCENLLPQLITPRMMCVGFLSGGVDSCVGDSGGPLSSVEADGRIFQAGVVSWGDGCAQRNKPGVYTRLPLFRDWIKENTGV	1.96

Supply reported EC50 of hC3 cleavage belonging to this binder: MTSP-1 I41R/ins97aE/F97T/T98G/F99L/C122S/G151E/Q175L/Q192E (enzyme) VVGGTDADEGEWPWQVSLHALGQGHRCGASLISPNWLVSAAHCYIDDRGFRYSDPTQWTAFLGLHDQSQRSAPGVQERRLKRIISHPFFNDTEGLDYDIALLELEKPAEYSSMVRPISLPDASHVFPAGKAIWVTGWGHTQYGGTEALILQKGEIRVINQTTCENLLPQLITPRMMCVGFLSGGVDSCEGDSGGPLSSVEADGRIFQAGVVSWGDGCAQRNKPGVYTRLPLFRDWIKENTGV
126
